- assay.target: recombinant human IL-6 (human, UniProt P05231 30-212)
- Sequence (P05231 30-212 limits assumed): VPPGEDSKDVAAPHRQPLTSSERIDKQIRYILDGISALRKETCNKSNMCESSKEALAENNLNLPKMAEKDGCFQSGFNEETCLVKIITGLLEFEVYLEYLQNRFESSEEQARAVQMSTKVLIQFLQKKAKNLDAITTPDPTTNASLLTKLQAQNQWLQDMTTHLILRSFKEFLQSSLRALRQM
- test.summary: SPR, IL-6 on CM5 chip, Fab lysate, 25 C
Measured koff of individual entries
assay.endpoint: koff

• anti-IL-6 Fab, heavy chain T58R (Fab, V domains shown, see m39) VH: EVQLVESGGGLVQPGGSLRLSCAASGFTFSPFAMSWVRQAPGKGLEWVAKISPGGSWRYYSDTVTGRFTFSLDTSKSTAYLQMNSLRAEDTAVYYCARQLWGYYALDIWGQGTLVTVSS VL: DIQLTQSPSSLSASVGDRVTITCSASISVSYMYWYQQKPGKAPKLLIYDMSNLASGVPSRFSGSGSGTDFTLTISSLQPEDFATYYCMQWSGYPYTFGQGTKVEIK = 0.00425 s⁻¹
• anti-IL-6 Fab, light chain I27L (Fab, V domains shown, see m39) VH: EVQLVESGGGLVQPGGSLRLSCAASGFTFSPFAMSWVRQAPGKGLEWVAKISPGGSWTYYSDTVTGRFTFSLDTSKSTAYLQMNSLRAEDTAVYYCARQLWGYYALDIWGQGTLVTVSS VL: DIQLTQSPSSLSASVGDRVTITCSASLSVSYMYWYQQKPGKAPKLLIYDMSNLASGVPSRFSGSGSGTDFTLTISSLQPEDFATYYCMQWSGYPYTFGQGTKVEIK = 0.00593 s⁻¹
• anti-IL-6 Fab, heavy chain Y103E (Fab, V domains shown) VH: EVQLVESGGGLVQPGGSLRLSCAASGFTFSPFAMSWVRQAPGKGLEWVAKISPGGSWTYYSDTVTGRFTFSLDTSKSTAYLQMNSLRAEDTAVYYCARQLWGEYALDIWGQGTLVTVSS VL: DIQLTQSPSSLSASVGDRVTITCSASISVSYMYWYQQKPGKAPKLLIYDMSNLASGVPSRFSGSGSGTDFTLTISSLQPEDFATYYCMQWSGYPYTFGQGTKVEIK = 0.00512 s⁻¹
• anti-IL-6 Fab, light chain I27F (Fab, V domains shown, see m39) VH: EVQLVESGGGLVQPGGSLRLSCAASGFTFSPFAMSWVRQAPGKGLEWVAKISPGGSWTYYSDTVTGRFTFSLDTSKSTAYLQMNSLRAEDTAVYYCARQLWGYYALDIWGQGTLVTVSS VL: DIQLTQSPSSLSASVGDRVTITCSASFSVSYMYWYQQKPGKAPKLLIYDMSNLASGVPSRFSGSGSGTDFTLTISSLQPEDFATYYCMQWSGYPYTFGQGTKVEIK = 0.00594 s⁻¹
• anti-IL-6 Fab, light chain A25T (Fab, V domains shown, see m39) VH: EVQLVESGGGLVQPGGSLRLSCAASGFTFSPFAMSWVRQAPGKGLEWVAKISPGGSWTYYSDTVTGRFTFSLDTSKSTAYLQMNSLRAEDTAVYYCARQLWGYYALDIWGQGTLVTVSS VL: DIQLTQSPSSLSASVGDRVTITCSTSISVSYMYWYQQKPGKAPKLLIYDMSNLASGVPSRFSGSGSGTDFTLTISSLQPEDFATYYCMQWSGYPYTFGQGTKVEIK = 0.00479 s⁻¹
